ASSAY_SYSTEM: biotinylated labeled human GPC3 protein (produced in-house) (human, UniProt P51654 25-559, limits assumed, biotinylated (Dojindo, Cat. No. LK03); sites not stated)
ASSAY_NOTES: ELISA, biotinylated human GPC3 protein
Returns one of Criterion met or Criterion not met; Criterion met when OD450 at 2.67 nM is >= 2 OD450.

hAb007LH1L1 (antibody, human IgG1, V domains shown, Humanized F3.81.19; VH H1 + VL L1; expressed as human IgG1) VH: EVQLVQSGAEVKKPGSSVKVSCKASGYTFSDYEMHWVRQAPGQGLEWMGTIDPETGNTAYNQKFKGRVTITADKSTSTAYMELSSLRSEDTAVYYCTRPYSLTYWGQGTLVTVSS VL: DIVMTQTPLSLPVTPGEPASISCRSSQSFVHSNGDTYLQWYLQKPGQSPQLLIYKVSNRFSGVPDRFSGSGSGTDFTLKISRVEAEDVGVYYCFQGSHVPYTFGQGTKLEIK :: Criterion met
hAb005LH1L1a (antibody, human IgG1, V domains shown, Humanized F3.54.12; VH H1 + VL L1a; expressed as human IgG1) VH: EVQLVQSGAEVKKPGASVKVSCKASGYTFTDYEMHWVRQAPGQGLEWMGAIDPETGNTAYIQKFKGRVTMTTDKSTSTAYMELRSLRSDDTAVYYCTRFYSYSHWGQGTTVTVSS VL: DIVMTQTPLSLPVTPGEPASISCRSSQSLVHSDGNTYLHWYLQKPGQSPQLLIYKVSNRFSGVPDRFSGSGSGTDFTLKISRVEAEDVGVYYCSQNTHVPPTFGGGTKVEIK :: Criterion not met
hAb007LH3L1b (antibody, human IgG1, V domains shown, Humanized F3.81.19; VH H3 + VL L1b; expressed as human IgG1) VH: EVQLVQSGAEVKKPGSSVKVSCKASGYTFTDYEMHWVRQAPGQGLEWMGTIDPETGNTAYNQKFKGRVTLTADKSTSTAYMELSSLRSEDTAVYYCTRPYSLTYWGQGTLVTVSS VL: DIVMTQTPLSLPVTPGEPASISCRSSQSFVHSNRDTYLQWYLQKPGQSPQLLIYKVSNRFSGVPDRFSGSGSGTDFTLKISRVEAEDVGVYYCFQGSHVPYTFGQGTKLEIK :: Criterion met

Asked: Answer whether OD450 at 2.67 nM of hAb005LH2L1a (antibody, human IgG1, V domains shown, Humanized F3.54.12; VH H2 + VL L1a; expressed as human IgG1) VH: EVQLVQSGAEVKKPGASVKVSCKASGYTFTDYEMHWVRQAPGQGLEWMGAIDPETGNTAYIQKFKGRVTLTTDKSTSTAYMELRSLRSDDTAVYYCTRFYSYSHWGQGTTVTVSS VL: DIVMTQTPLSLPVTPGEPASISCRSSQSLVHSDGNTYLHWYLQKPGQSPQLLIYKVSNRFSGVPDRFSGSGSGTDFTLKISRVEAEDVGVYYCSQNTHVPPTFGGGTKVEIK is greater than or equal to 2 OD450.
Given back: Criterion not met

Asked: Answer whether OD450 at 2.67 nM of hAb001H2L1 (antibody, human IgG1, V domains shown, Humanized F2.169.2; VH H2 + VL L1; expressed as human IgG1) VH: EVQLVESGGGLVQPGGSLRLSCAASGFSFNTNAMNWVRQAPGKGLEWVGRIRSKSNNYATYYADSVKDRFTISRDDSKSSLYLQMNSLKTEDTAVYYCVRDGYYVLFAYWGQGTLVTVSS VL: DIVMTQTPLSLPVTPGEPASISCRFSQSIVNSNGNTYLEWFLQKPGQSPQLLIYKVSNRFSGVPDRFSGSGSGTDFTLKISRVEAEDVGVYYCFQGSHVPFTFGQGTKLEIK is greater than or equal to 2 OD450.
Given back: Criterion met
